- Tested on: NCI-H460
- assay-overview: NCI tumour cell line growth inhibition, 48 h
Activity calls are given as the source filed them. No stated cut-off is given here; in the data, active = GI50 up to about 1.1 µM and inactive = higher.
Labels: 1 = active, 0 = inactive

molecule=Cc1ccc(C2=Nn3c(nc4sc(C)c(C)c4c3=O)SC2)cc1 label_value=0
molecule=SCCSCCCSCCS label_value=0
molecule=O=C1c2ccccc2S(=O)(=O)c2ccccc21 label_value=0
molecule=CCN(CC)C(=S)SNCCc1ccc(S(N)(=O)=O)cc1 label_value=0
molecule="O=C1CC2CC=C[C@H]3c4cc5c(cc4C(=O)N1C23)OCO5 (some centres not stated)" label_value=0
molecule=CO[C@@H]1C[C@H]2[C@@H]3CC[C@H]([C@H](C)CO)[C@@]3(C)CC[C@@H]2[C@@]2(C)CC[C@H]3C[C@]312 label_value=0
molecule=Cc1nc(C)c(C(=O)NNC(=O)c2ccccc2)cc1C(=O)NNC(=O)c1ccccc1 label_value=0
molecule="CN(CCCCCl)P(=O)(OCc1ccc([N+](=O)[O-])o1)OC[C@H]1O[C@@H](n2cc(F)c(=O)[nH]c2=O)C[C@@H]1O (some centres not stated)" label_value=1
molecule="OCC1OC(NCCNCCNC2OC(CO)C(O)C(O)C2O)C(O)C(O)C1O (configuration not stated)" label_value=0
molecule=CC(C)Oc1c(-c2c(OC(C)C)c(=O)c2=O)c(=O)c1=O label_value=0
molecule="CCOC(=O)C1(C/C=C\\CBr)CCCCCCCCCCC1=O (configuration not stated)" label_value=0
molecule=O=C(c1ccccc1)c1nnn(Cc2cccc(Cl)c2)c1C(=O)c1ccccc1 label_value=0
molecule=Oc1ccc(N=C2CCC(=C(c3ccccc3)c3ccc(Nc4ccc(O)cc4)cc3)CC2)cc1 label_value=0
molecule=O=[N+]([O-])c1ccc(/C=C/c2ccc(/N=N/c3ccc(/C=C/c4ccc([N+](=O)[O-])cc4S(=O)(=O)O)c(S(=O)(=O)O)c3)cc2S(=O)(=O)O)c(S(=O)(=O)O)c1 label_value=0
molecule=CCOC(=O)[C@@]12C(C)=CC(=O)O[C@]1(C)C[C@H]2C#N label_value=0
molecule="COc1ccc(OC)c(C2CCc3nc4nc(N)nc(N)c4cc3C2)c1 (configuration not stated)" label_value=0
molecule=CCCCCCCCCCCCCC(=S)N/C=C/OC label_value=0
molecule=O=C1OC[C@@H]2[C@@H](O)CCCCCN12 label_value=0
molecule=Cc1ccc(NC(=O)SCCC(=O)O)cc1 label_value=0
molecule=CN(C)CCNc1ccc(CO)c2sc3ccc(O)cc3c(=O)c12 label_value=1
molecule=CN(CC(=O)O)S(=O)(=O)c1ccc(Cl)cc1 label_value=0
molecule="CCC(C)[C@@H](NC1=C(Cl)C(=O)c2c(O)ccc(O)c2C1=O)C(=O)OC (some centres not stated)" label_value=0
molecule=O=S(=O)(SC1=NCCN1)c1cccc2ccccc12 label_value=0
molecule="COC(=O)N/N=C(/c1nc2ccc([N+](=O)[O-])cc2nc1O)C(O)c1ccc(OC)c(OC)c1 (configuration not stated)" label_value=0
molecule=O=C1c2ccccc2C(=O)c2sc(Nc3ccccc3Cl)nc21 label_value=0
molecule=O=P(O)(Cc1ccccc1)c1ccccc1-c1ccccc1 label_value=0
molecule=CCOC(=O)/C=C(\C)Sc1cc(O)c2ccccc2c1O label_value=0
molecule=N#CCc1nc(Cc2ccccc2)n[nH]1 label_value=0
molecule=ClCC[N+]12CC[N+](CCCl)(CC1)C2 label_value=0
molecule="CC(NNC(=O)c1cc[n+]([BH2-]C#N)cc1)c1cccc(F)c1 (configuration not stated)" label_value=0
molecule=O=C(N/N=C/c1cc(Cl)cc(Cl)c1O)c1ccncc1 label_value=0
molecule=CCCCCCCCCCCOC(=S)NC(C)C label_value=0
